Every entry's value here was drawn from patent EP4631938A1.

target: human recombinant 5-HT2A receptor (Homo sapiens, UniProt P28223); construct: expressed in transfected cells; host or cells: Jump-In HEK cells (membrane preparation); test: Test Example 1-2: 5-HT2A receptor binding inhibition test ([3H]-Ketanserin; non-specific ligand Ketanserin); conditions: [3H]-Ketanserin; non-specific binding with 500 µmol/L Ketanserin; room temperature (25°C), 1.5 hours; read-out: h 5-HT2A Ki
Sequence (P28223 whole entry): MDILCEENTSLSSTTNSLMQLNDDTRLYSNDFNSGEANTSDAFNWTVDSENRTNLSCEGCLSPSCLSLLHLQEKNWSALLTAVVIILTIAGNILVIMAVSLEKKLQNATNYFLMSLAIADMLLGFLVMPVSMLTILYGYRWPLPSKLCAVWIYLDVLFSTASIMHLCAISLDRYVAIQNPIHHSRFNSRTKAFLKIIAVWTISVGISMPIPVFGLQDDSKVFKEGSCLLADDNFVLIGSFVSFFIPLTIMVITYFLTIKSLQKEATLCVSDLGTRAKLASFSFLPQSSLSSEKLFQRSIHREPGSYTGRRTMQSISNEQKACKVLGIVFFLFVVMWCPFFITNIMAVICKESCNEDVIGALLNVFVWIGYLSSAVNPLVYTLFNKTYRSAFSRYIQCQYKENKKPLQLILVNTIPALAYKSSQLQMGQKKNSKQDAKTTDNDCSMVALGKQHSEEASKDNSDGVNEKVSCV
pKi: −log10 of the molar value.
property.label: pKi

[
  {
    "smiles.representation": "COCc1ccc(-c2cnc(Nc3cc(-c4c(C)nc(COC)nc4C)c(OCCO)cn3)c(Cl)c2)cc1",
    "property.label": "pKi",
    "test.value": 9.12
  }
]

P: Cc1ncnc(C)c1-c1cc(Nc2ncc(C(F)(F)F)cc2Cl)ncc1OCCO
Q: COCc1nc(C)c(-c2cc(Nc3ncc(-c4cccc(F)c4)cc3Cl)ncc2OCCO)c(C)n1
R: Cc1nc(CO[C@@H]2CCOC2)nc(C)c1-c1cc(Nc2ncc(C(F)(F)F)cc2Cl)ncc1OCCO
Sort (3 compounds) by pKi: min first. Submit the labels in the order that the ranking request calls for.
R, P, Q
(R: 8.61, P: 9.08, Q: 9.40)

====

biological target: human recombinant 5-HT2C receptor (Homo sapiens); construct: expressed in transfected cells; host or cells: Jump-In HEK cells (membrane preparation); test: Test Example 2: 5-HT2C receptor binding inhibition test ([3H]-Mesulergine; non-specific ligand Serotonin HCl); conditions: human serotonin 5-HT2C receptor binding activity
Sequence (P28335 33-458): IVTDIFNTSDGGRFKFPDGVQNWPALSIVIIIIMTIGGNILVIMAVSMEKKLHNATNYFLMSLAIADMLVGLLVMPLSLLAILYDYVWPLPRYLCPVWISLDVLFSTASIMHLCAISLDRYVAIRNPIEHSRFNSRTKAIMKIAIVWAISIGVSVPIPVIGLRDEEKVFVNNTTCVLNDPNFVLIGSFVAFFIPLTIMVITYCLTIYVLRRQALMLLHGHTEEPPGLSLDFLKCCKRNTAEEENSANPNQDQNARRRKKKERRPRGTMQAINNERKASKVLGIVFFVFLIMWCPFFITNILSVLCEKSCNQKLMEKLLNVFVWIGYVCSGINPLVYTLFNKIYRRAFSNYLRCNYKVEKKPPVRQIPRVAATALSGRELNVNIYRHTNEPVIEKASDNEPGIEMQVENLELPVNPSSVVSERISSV
property.label: Ki (nM)

# count of solved cases: 2
[
  {
    "compound": "Cc1cc(Cl)cnc1Nc1ccc(OCCO)c(-c2c(Br)cnn2C)c1 [Compound I-341]",
    "assayed.target": "human recombinant 5-HT2C receptor (Homo sapiens)",
    "test.value": 0.14
  },
  {
    "compound": "COCc1nc(C)c(-c2cc(Nc3ncc(-c4nc(C(F)(F)F)co4)cc3Cl)ncc2OCCO)c(C)n1 [Compound I-240]",
    "assayed.target": "human recombinant 5-HT2C receptor (Homo sapiens)",
    "test.value": 1.54
  }
]

a: Cc1ncnc(C)c1-c1cc(Nc2ncc(C(F)(F)F)cc2Cl)ncc1OCCO [Compound I-202]
b: Cc1nc(C)c(-c2cc(Nc3ccc(-c4ccc(C(F)(F)F)nc4)cn3)ncc2OCCO)c(C)n1 [Compound I-315]
Hi, I'm comparing two records. Which one has the lower Ki, a or b ? Output the label that corresponds to your choice.
b
(b: 1.05 nM, a: 9.12 nM)

====

Measured Ki by item
target: human recombinant 5-HT2A receptor (Homo sapiens, UniProt P28223); construct: expressed in transfected cells; host or cells: Jump-In HEK cells (membrane preparation); test: Test Example 1-2: 5-HT2A receptor binding inhibition test ([3H]-Ketanserin; non-specific ligand Ketanserin)
Enter your answer as a number in nM; do not include the unit.

Given the molecule `Cn1cnc(C#N)c1-c1cc(Nc2ncc(C(F)(F)F)cc2F)ccc1OCCO` , write its reported Ki.
0.15

Given the molecule `C=C(C)c1cnn(C)c1-c1cc(Nc2ncc(C(F)(F)F)cc2F)ccc1OCCO` , write its reported Ki.
0.632

Given the molecule `Cn1ncc(Br)c1-c1nc(Nc2ccc(C(F)(F)F)cn2)ccc1OCCO` , write its reported Ki.
0.184

Given the molecule `Cn1ncc(C#N)c1-c1cc(Nc2ncc(C(F)(F)F)cc2F)c(Cl)cc1OCCO` , write its reported Ki.
0.598

Given the molecule `Cn1ncc(Br)c1-c1cc(Nc2ncc(C(F)(F)F)cc2F)ncc1OCCO` , write its reported Ki.
0.286

Given the molecule `C#Cc1cnn(C)c1-c1cc(Nc2ncc(C(F)(F)F)cc2F)ccc1OCCO` , write its reported Ki.
0.418
